experimental-details: Study 1 Cohort 2: single dose entrectinib alone or with rifampin, plasma pharmacokinetics
run-conditions: Entrectinib 600 mg with rifampin 600 mg QD; geometric mean (geometric CV)
property-label: Cmax (nM)
Kindly answer with a numeric value in nM, unit omitted.

Looking for the measured Cmax of O=C(Nc1n[nH]c2ccc(Cc3cc(F)cc(F)c3)cc12)c1ccc(N2CCNCC2)cc1NC1CCOCC1 [M5] , can you help? 108

---

tested-system: CYP2C9 (Homo sapiens)
Sequence (P11712 whole entry): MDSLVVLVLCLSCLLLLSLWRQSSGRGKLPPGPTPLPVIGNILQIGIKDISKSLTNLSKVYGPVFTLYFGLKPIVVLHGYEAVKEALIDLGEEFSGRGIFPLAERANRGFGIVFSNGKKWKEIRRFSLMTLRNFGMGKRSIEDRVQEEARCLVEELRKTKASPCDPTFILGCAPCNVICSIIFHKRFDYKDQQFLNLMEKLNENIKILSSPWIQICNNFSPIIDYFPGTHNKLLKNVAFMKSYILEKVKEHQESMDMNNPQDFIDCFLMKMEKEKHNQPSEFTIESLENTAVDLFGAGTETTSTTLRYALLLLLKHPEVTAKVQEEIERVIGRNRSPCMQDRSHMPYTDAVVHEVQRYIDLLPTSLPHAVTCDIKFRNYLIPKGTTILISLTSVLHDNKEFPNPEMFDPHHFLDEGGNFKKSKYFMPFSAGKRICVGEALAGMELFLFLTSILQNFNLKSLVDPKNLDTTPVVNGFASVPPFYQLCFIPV
Task for the reader: assign each of the following compounds its reported IC50.

Param readout = IC50; param system = CYP2C9 (Homo sapiens); param query = CN1CCN(c2ccc(C(=O)Nc3n[nH]c4ccc(Cc5cc(F)cc(F)c5)cc34)c(NC3CCOCC3)c2)CC1 ; response: value > 10 µM

Try O=C(Nc1n[nH]c2ccc(Cc3cc(F)cc(F)c3)cc12)c1ccc(N2CCNCC2)cc1NC1CCOCC1 next. > 10 µM

---

experimental-details: Study 2: midazolam pharmacokinetics alone or with single and multiple dose entrectinib
run-conditions: human, plasma, oral, 7.5 mg
property-label: half-life (h)
Kindly answer with a numeric value in h, unit omitted.

Looking for the measured half-life of Cc1ncc2n1-c1ccc(Cl)cc1C(c1ccccc1F)=NC2 , can you help? 5.2

---

experimental-details: clinical
run-conditions: human, in vivo, 600 mg, Tmax
property-label: Tmax (h)
Kindly answer with a numeric value in h, unit omitted.

Looking for the measured Tmax of CN1CCN(c2ccc(C(=O)Nc3n[nH]c4ccc(Cc5cc(F)cc(F)c5)cc34)c(NC3CCOCC3)c2)CC1 [Entrectinib] , can you help? 3.5

---

experimental-details: clinical
run-conditions: human, plasma, oral, 600 mg
property-label: AUC(0-inf) (µM·h)
Kindly answer with a numeric value in µM·h, unit omitted.

Looking for the measured AUC(0-inf) of C[C@H]1O[C@@H](O[C@H]2[C@@H](O)C[C@H](O[C@H]3[C@@H](O)C[C@H](O[C@H]4CC[C@@]5(C)[C@H](CC[C@@H]6[C@@H]5C[C@@H](O)[C@]5(C)[C@@H](C7=CC(=O)OC7)CC[C@]65O)C4)O[C@@H]3C)O[C@@H]2C)C[C@H](O)[C@@H]1O , can you help? 0.0404

---

tested-system: CYP2C19 (Homo sapiens, UniProt P33261)
Sequence (P33261 whole entry): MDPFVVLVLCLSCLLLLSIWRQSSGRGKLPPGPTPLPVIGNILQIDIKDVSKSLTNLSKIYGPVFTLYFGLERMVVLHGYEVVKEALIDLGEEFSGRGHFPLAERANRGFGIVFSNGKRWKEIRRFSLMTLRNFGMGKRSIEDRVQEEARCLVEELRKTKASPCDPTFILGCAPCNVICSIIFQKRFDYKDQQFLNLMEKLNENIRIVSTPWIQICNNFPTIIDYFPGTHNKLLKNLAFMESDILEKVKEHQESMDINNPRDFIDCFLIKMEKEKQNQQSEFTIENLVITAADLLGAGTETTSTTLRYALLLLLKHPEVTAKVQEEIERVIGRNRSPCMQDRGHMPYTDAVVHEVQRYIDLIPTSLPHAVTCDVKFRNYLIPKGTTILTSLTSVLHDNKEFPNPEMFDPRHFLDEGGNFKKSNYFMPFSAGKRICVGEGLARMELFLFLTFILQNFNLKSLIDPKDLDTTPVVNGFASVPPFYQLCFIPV
experimental-details: In vitro CYP inhibition in human liver microsomes
Type: in vitro ADME
Design: purchased Corning-Gentest
property-label: IC50

Looking for the measured IC50 of O=C(Nc1n[nH]c2ccc(Cc3cc(F)cc(F)c3)cc12)c1ccc(N2CCNCC2)cc1NC1CCOCC1 , can you help? > 10 µM

Try CN1CCN(c2ccc(C(=O)Nc3n[nH]c4ccc(Cc5cc(F)cc(F)c5)cc34)c(NC3CCOCC3)c2)CC1 next. > 10 µM

---

experimental-details: Study 1 Cohort 2: single dose entrectinib alone or with rifampin, plasma pharmacokinetics
run-conditions: human, in vivo, 600 mg, t1/2, Entrectinib 600 mg with rifampin 600 mg QD; geometric mean (geometric CV)
property-label: half-life (h)
Kindly answer with a numeric value in h, unit omitted.

Looking for the measured half-life of CN1CCN(c2ccc(C(=O)Nc3n[nH]c4ccc(Cc5cc(F)cc(F)c5)cc34)c(NC3CCOCC3)c2)CC1 , can you help? 10

---

run-conditions: Digoxin alone; geometric mean (geometric CV)
property-label: Cmax (nM)
Kindly answer with a numeric value in nM, unit omitted.

Looking for the measured Cmax of C[C@H]1O[C@@H](O[C@H]2[C@@H](O)C[C@H](O[C@H]3[C@@H](O)C[C@H](O[C@H]4CC[C@@]5(C)[C@H](CC[C@@H]6[C@@H]5C[C@@H](O)[C@]5(C)[C@@H](C7=CC(=O)OC7)CC[C@]65O)C4)O[C@@H]3C)O[C@@H]2C)C[C@H](O)[C@@H]1O , can you help? 1.97

---

Task for the reader: assign each of the following compounds its reported IC50.
tested-system: CYP1A2 (Homo sapiens, UniProt P05177)
Sequence (P05177 1-516): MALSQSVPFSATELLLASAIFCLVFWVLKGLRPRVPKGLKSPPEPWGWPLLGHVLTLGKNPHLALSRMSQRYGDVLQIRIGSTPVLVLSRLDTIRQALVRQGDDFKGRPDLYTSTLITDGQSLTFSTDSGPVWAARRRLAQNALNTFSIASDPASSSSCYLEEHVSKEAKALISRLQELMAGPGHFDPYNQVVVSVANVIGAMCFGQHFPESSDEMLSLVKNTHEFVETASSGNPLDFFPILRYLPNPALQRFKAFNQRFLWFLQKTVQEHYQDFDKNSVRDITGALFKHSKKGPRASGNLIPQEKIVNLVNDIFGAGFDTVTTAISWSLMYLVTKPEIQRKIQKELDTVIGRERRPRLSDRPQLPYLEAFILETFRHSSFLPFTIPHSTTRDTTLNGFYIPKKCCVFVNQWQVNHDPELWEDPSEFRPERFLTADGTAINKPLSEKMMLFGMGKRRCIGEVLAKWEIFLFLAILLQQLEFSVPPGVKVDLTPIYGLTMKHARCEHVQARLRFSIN

Looking for the measured IC50 of CN1CCN(c2ccc(C(=O)Nc3n[nH]c4ccc(Cc5cc(F)cc(F)c5)cc34)c(NC3CCOCC3)c2)CC1 , can you help? > 10 µM

Try O=C(Nc1n[nH]c2ccc(Cc3cc(F)cc(F)c3)cc12)c1ccc(N2CCNCC2)cc1NC1CCOCC1 next. > 10 µM

---

experimental-details: Study 2: midazolam pharmacokinetics alone or with single and multiple dose entrectinib
run-conditions: human, plasma, oral, 7.5 mg
property-label: Cmax (nM)
Kindly answer with a numeric value in nM, unit omitted.

Looking for the measured Cmax of Cc1ncc2n1-c1ccc(Cl)cc1C(c1ccccc1F)=NC2 , can you help? 19

---

tested-system: CYP2D6 (Homo sapiens, UniProt P10635)
Sequence (P10635 whole entry): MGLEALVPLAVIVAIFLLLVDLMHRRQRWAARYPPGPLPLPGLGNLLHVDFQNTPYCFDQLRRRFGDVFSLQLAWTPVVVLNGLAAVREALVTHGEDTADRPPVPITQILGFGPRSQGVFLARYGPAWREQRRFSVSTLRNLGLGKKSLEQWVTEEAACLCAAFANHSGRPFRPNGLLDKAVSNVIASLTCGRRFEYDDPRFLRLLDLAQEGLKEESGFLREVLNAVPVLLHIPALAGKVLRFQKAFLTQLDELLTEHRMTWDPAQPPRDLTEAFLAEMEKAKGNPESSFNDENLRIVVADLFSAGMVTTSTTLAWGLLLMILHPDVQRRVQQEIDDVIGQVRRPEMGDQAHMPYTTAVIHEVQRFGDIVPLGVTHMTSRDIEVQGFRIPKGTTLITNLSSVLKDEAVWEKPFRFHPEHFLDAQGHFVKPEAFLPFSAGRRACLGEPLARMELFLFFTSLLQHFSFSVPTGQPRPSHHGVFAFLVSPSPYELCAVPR
pIC50: −log10 of the molar value.
property-label: pIC50

Param readout = pIC50; param system = CYP2D6 (Homo sapiens, UniProt P10635); param query = CN1CCN(c2ccc(C(=O)Nc3n[nH]c4ccc(Cc5cc(F)cc(F)c5)cc34)c(NC3CCOCC3)c2)CC1 ; response: value < 5.00

Try O=C(Nc1n[nH]c2ccc(Cc3cc(F)cc(F)c3)cc12)c1ccc(N2CCNCC2)cc1NC1CCOCC1 next. < 5.00

---

experimental-details: Study 1 Cohort 2: single dose entrectinib alone or with rifampin, plasma pharmacokinetics
run-conditions: Entrectinib 600 mg alone; geometric mean (geometric CV)
property-label: Cmax (nM)
Kindly answer with a numeric value in nM, unit omitted.

Looking for the measured Cmax of O=C(Nc1n[nH]c2ccc(Cc3cc(F)cc(F)c3)cc12)c1ccc(N2CCNCC2)cc1NC1CCOCC1 [M5] , can you help? 383

---

Target sequence: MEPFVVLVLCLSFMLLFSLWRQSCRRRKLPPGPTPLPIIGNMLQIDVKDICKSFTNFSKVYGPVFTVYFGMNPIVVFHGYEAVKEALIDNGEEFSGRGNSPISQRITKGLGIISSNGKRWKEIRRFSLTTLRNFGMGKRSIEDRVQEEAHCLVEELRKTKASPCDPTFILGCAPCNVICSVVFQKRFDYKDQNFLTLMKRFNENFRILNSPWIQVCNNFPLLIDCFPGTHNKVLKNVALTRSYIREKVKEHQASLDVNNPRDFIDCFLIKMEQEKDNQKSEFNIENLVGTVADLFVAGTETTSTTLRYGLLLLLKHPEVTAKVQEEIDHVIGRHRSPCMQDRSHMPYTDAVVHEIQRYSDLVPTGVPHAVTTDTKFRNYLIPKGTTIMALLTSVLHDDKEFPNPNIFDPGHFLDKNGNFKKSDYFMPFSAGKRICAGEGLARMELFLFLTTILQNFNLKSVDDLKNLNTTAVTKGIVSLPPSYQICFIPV
pIC50: −log10 of the molar value.
property-label: pIC50

Looking for the measured pIC50 of CN1CCN(c2ccc(C(=O)Nc3n[nH]c4ccc(Cc5cc(F)cc(F)c5)cc34)c(NC3CCOCC3)c2)CC1 [Entrectinib] , can you help? < 5.00

---

experimental-details: clinical
run-conditions: human, plasma, oral, 75 mg
property-label: AUC(0-inf) (µM·h)
Kindly answer with a numeric value in µM·h, unit omitted.

Looking for the measured AUC(0-inf) of C[C@H]1O[C@@H](O[C@H]2[C@@H](O)C[C@H](O[C@H]3[C@@H](O)C[C@H](O[C@H]4CC[C@@]5(C)[C@H](CC[C@@H]6[C@@H]5C[C@@H](O)[C@]5(C)[C@@H](C7=CC(=O)OC7)CC[C@]65O)C4)O[C@@H]3C)O[C@@H]2C)C[C@H](O)[C@@H]1O [Digoxin] , can you help? 0.0342

---

experimental-details: Study 1 Cohort 2: single dose entrectinib alone or with rifampin, plasma pharmacokinetics
run-conditions: human, in vivo, 600 mg, t1/2, Entrectinib 600 mg alone; geometric mean (geometric CV)
property-label: half-life (h)
Kindly answer with a numeric value in h, unit omitted.

Looking for the measured half-life of CN1CCN(c2ccc(C(=O)Nc3n[nH]c4ccc(Cc5cc(F)cc(F)c5)cc34)c(NC3CCOCC3)c2)CC1 [Entrectinib] , can you help? 17

The reported numbers originate from paper PMC8763936.
